Just for reference, paper PMC9090415 is where these values come from.

- experimental-target: UniProt Q8ILY1
- Sequence (Q8ILY1 entry or part of it): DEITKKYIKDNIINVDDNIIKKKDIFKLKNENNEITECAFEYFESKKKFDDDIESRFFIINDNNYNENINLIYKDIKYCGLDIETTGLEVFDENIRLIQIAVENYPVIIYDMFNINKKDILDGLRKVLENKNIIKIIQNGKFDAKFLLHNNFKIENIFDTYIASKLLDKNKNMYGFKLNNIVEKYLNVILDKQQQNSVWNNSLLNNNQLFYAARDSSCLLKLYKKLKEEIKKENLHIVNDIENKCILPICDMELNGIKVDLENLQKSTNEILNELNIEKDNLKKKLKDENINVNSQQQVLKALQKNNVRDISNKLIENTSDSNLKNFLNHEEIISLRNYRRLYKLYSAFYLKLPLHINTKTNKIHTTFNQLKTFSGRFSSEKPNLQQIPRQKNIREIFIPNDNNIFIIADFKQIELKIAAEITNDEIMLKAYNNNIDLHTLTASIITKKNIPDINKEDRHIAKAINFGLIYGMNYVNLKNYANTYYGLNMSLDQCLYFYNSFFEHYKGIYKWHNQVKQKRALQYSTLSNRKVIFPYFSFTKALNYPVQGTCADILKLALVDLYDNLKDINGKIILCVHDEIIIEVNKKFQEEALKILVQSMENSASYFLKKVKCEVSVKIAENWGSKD
- method-summary: Fluorescence-based high-throughput DNA polymerase assay (molecular beacon), primary screen and dose-response;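 further: test concentration in µM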
- Format: biochemical
- assay-context: DRC-2; 180'; concentration 5
Catalogue of % inhibition apPOL 180' values
Just the number please, in %, no unit attached.

Recorded % inhibition apPOL 180', per entry:
O=C(CSc1nnc(-c2ccncc2)[nH]1)c1ccc(O)c(O)c1: 53
Cc1ccc(C)n1-c1ccc(C(=O)NNC(=O)c2ccc3nccnc3c2)cc1: -2.77
COc1ccc2c(c1)C(c1ccccc1OC)CC(=O)O2 (centres unmarked): 7
CC(C)(C)OC(=O)COc1ccc2cc(-c3ccccc3)c(=O)oc2c1: -93

# input Given the entry `Cc1nc(/N=N/c2ccc(C(=O)[O-])cc2)c(COP(=O)([O-])[O-])c(C=O)c1O.[Na+].[Na+].[Na+]` , report its measured % inhibition apPOL 180'.
# output 26

# input Do the same for CCCCCCCCCCCC1SCC(C(=O)O)N1C(C)=O (centres unmarked) please
# output 5

# input Do the same for `CCCCOC(=O)CCCCCN1C(=O)C(=Cc2ccc(OC)cc2)SC1=S` please
# output 0.541

# input Do the same for `Cc1ccc(NC(=O)C2CCN(C(=O)c3cc4ccsc4[nH]3)CC2)c(Br)c1` please
# output 12
